Target: TREM2 extracellular domain (ECD) (residues 19-131, C-terminally biotinylated, deglycosylated or glycosylated) (Homo sapiens, UniProt Q9NZC2);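 also: Bio-layer interferometry in 50 mM HEPES pH 7.5 with 150 mM NaCl and 0.1% Tween, double-referenced with blank wells and unrelated-protein sensors, equilibrium response fitted versus concentration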
Sequence (Q9NZC2 19-131): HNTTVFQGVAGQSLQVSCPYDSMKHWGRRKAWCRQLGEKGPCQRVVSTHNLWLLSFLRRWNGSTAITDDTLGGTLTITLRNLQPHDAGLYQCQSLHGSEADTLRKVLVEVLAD
Test: biochemical
Conditions: Human BLI (Kd; nM) (deglycosylated), Table 4B; deglycosylated human TREM2 ECD; steady-state KD, 25° C.
*1 amine or outer side, *2 acyl side, *3 side chain or, on linkers, in order; H or OH if unused. Where a SMILES comes first, the peptide text is derived from it. Bridges are numbered along the chain shown (N, C = ends). [ ]: non-standard residue; d: D form. TATA = O=C(CC[*:1])N1CN(C(=O)CC[*:2])CN(C(=O)CC[*:3])C1; Phe(2-Me) = Cc1ccccc1C[C@H](N)C(=O)O
parameter: Kd (nM)
Enter your answer as a number in nM; do not include the unit.

compound	quantity_unit	Kd
CC(=O)N[C@H]1CSCCC(=O)N2CN3CN(C2)C(=O)CCSC[C@H](NC(=O)[C@H](Cc2ccc(O)cc2)NC(=O)[C@H](CCC(=O)O)NC(=O)[C@H](CO)NC1=O)C(=O)N[C@@H](Cc1ccccc1)C(=O)N[C@@H](Cc1c[nH]c2ccccc12)C(=O)N1CCCC[C@H]1C(=O)N[C@@H](Cc1ccccc1)C(=O)N[C@@H](Cc1ccc(O)cc1)C(=O)N[C@@H](Cc1c[nH]cn1)C(=O)N[C@H](C(N)=O)CSCCC3=O [BCY20069, Ac-(SEQ ID NO: 62)]	nM	1460

// next entry
Documented Kd of CC(=O)N[C@H]1CSCCC(=O)N2CN3CN(C2)C(=O)CCSC[C@H](NC(=O)[C@H](Cc2ccc(O)cc2)NC(=O)[C@H](CCC(=O)O)NC(=O)[C@H](CO)NC1=O)C(=O)N[C@@H](Cc1ccccc1)C(=O)N[C@@H](Cc1ccccc1C)C(=O)N1CCC[C@H]1C(=O)N[C@@H](Cc1ccccc1)C(=O)N[C@@H](Cc1ccc(O)cc1)C(=O)N[C@@H](Cc1c[nH]cn1)C(=O)N[C@H](C(N)=O)CSCCC3=O [BCY20063, Ac-(SEQ ID NO: 61)] (Ac-CSEYCF[Phe(2-Me)]PFYHC-NH2; linker 1-5-12 via TATA) : 1300
